- SYSTEM_UNDER_TEST: GST-Flk1 (Mus musculus, UniProt P35918)
- Construct: GST-Flk1cd purified from sf9 recombinant baculovirus transformation (SUGEN, Inc.); host or cells: Sf9 insect cells (recombinant baculovirus)
- Sequence (P35918 784-1345 limits assumed): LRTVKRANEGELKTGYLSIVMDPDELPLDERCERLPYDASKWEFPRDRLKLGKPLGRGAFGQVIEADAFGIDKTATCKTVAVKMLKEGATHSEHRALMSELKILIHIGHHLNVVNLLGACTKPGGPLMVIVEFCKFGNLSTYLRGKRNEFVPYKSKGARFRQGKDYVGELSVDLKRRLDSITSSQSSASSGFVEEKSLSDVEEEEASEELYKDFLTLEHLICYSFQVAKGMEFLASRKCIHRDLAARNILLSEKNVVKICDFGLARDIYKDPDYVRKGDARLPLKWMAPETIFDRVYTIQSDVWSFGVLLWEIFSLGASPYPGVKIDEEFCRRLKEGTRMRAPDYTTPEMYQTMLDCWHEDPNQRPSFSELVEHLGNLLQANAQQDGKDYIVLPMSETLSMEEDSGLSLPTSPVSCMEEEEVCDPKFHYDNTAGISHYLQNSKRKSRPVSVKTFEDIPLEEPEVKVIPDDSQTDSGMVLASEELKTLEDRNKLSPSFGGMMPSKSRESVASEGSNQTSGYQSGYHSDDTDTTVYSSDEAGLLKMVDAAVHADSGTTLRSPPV
- TEST_DESCRIPTION: GST-FLK-1 bioassay (ELISA, tyrosine kinase activity on poly(glu,tyr))
- Format: biochemical
METRIC_NAME: IC50 (µM)

a = O=C(CNCC(O)CN1CCOCC1)Nc1cccc(Nc2ncc(-c3ccsc3)cn2)c1 (stereo not drawn)
b = Oc1ccc(Nc2ncc(-c3cccs3)cn2)cc1
c = Nc1cccc(Nc2ncc(-c3ccsc3)cn2)c1
Arrange these molecules by their IC50, starting with the largest number. Would you mind listing the labels in the order asked for? b, a, c
(b: 4.61 µM, a: 2.7 µM, c: 1.53 µM)

a = CCN(CC)CCNCC(=O)Nc1cccc(Nc2ncc(-c3ccsc3)cn2)c1
b = O=C(Nc1ccc(Nc2ncc(-c3ccsc3)cn2)cc1)N1CCOCC1
Could you please tell me which of these two has the higher IC50: a or b ? # respond with the chosen item's label b
(b: 4.7 µM, a: 3.1 µM)

a = CC(=O)Nc1ccc(Nc2ncc(-c3ccsc3)cn2)cc1
b = O=C(Nc1cccc(Nc2ncc(-c3ccsc3)cn2)c1)N1CCC(N2CCCC2)CC1
Out of a and b , name the one with the higher IC50. # respond with the chosen item's label a

1 = O=C(CN1CCCC1)Nc1ccc(Nc2ncc(-c3ccsc3)cn2)cc1
2 = O=C(CN1CCC(N2CCCC2)CC1)Nc1cccc(Nc2ncc(-c3ccsc3)cn2)c1
// which entry reports the smaller IC50, 1 or 2 ? Select an item and report its label. 2
